# System: MCF7
# test method notes: NCI tumour cell line growth inhibition, 48 h
The source made the active and inactive calls. Rule as the data show it: active = GI50 up to about 1.1 µM and inactive = higher.
Write down the outcome that applies. Available outcomes: Y = active, N = inactive

# count of solved cases: 4
molecule: COc1ccc(/C=C/c2ccnc3ccccc23)cc1OC
label value: N
//
molecule: C=C(Nc1nc2ccc(C)cc2s1)C(=O)C(CC)C(=O)C(CC)CC1C(=O)NC(=O)NC1=O (stereo not given)
label value: N
//
molecule: O=c1nc2n3c4c(cccc4nc-2c(=O)[nH]1)CCC3
label value: N
//
molecule: CCOC(=O)/C(=C/Nc1c(C)n(C)n(-c2ccccc2)c1=O)C(C)=O
label value: N

Returns: the outcome recorded for CC1(C)N/C(=C\[N+](=O)[O-])C(C)(C)N1O in this assay. N

Returns: the outcome recorded for COC(=O)C(CCC(=O)CCl)N1C(=O)c2ccccc2C1=O (stereo not given) in this assay. N

Returns: the outcome recorded for Oc1c(Cl)ccc2cccnc12 in this assay. Y

Returns: the outcome recorded for COc1ccc(C(Nc2ccccn2)c2cc(C(C)(C)C)cc(C(C)(C)C)c2O)cc1 (stereo not given) in this assay. N

Returns: the outcome recorded for CCOc1cc(NC(C)=O)ccc1C(=O)NN1C(=O)/C(=C/c2ccc(Cl)cc2)N=C1c1ccccc1 in this assay. N

Returns: the outcome recorded for CC[N+](C)(CC)CCC(O)(c1ccccc1)c1ccccc1 in this assay. N

Returns: the outcome recorded for S=C1CC(c2ccccc2)Sc2cc(Cl)ccc2N1 (stereo not given) in this assay. N

====

# System: SK-MEL-28
# test method notes: NCI tumour cell line growth inhibition, 48 h
The source made the active and inactive calls. No stated cut-off is given here; in the data, active = GI50 up to about 1.1 µM and inactive = higher.
Write down the outcome that applies. Available outcomes: t for active, f for inactive

# count of solved cases: 10
compound: CC(C)(C)c1cc(/C=C(\C#N)C(=O)NCCO)cc(C(C)(C)C)c1O
label value: f

compound: O=C(c1ccc(Cl)cc1)N1N=C(c2ccc(Cl)cc2)CC1(O)c1cc(F)c(Cl)cc1Cl (stereo unspecified)
label value: f

compound: CC(=O)O[C@@H](c1nccn1Cc1ccccc1)[C@H]1OC(C)(C)O[C@@H]1[C@H]1COC(C)(C)O1
label value: f

compound: O=C(NCCCCCCO)c1cccc2cc3ccccc3nc12
label value: f

compound: Cn1/c(=N\c2ccccc2[N+](=O)[O-])sc2ccccc21
label value: f

compound: CC(C)(C)NC(=O)NC12CC3CC(CC(F)(C3)C1)C2
label value: f

compound: Nc1ncnc2c1ncn2CCOC(c1ccccc1)P(=O)(O)O (stereo unspecified)
label value: f

compound: CCOC(=O)C(CCc1ncnc2c1ncn2Cc1ccccc1)(CCc1ncnc2c1ncn2Cc1ccccc1)C(=O)OCC
label value: f

compound: O=C(/C(=N\Nc1ccc([N+](=O)[O-])cc1[N+](=O)[O-])NC12CC3CC(CC(C3)C1)C2)C(Br)C(=O)c1ccccc1 (stereo unspecified)
label value: f

compound: C=CCNC(=O)ON1C(=O)CCC1=O
label value: f

Returns: the outcome recorded for COc1ccc(/C=C2\N=C3NC(=O)C(N4CCOCC4)=C(N)N3C2=O)cc1 in this assay. f

Returns: the outcome recorded for C[C@@]12c3c4ccc(C=O)c3Oc3ccc(C=O)c(c31)Oc1c(C=O)ccc(c12)O4 in this assay. f

Returns: the outcome recorded for O=C1c2ccccc2-c2c1c(-c1ccc([N+](=O)[O-])cc1)nc1ccc3ccccc3c21 in this assay. f

Returns: the outcome recorded for C#CCn1c2c(c3ccccc3c1=O)C(=O)c1ccccc1-2 in this assay. f

====

# System: LOX IMVI
# test method notes: NCI tumour cell line growth inhibition, 48 h
Calls of active or inactive are those of the source. Cut-off read from the data, not from the text of the source: active = GI50 up to about 1.1 µM and inactive = higher.
Write down the outcome that applies. Available outcomes: active, inactive

# count of solved cases: 2
molecule: COC(=O)c1ccc(NCc2c(O)ccc(O)c2Br)cc1Cl
label value: inactive

molecule: O=C(O)/C(Cl)=C(\Cl)C(=O)NC1C2CC3CC(C2)CC1C3 (stereo unspecified)
label value: inactive

Returns: the outcome recorded for O=C1O/C(=C(/c2ccc(Cl)cc2)c2nc3ccccc3[nH]2)C(O)=C1c1ccc(Cl)cc1 in this assay. inactive

Returns: the outcome recorded for O=C1C(=CNC(=S)c2ccccc2)C(=O)c2ccccc21 in this assay. inactive

Returns: the outcome recorded for CC(C)CC(=O)OC[n+]1cccc(-c2c(COC(=O)NC(C)C)c(COC(=O)NC(C)C)c3n2CCC3)c1 in this assay. inactive

====

# Tested on: SF-295
# test method notes: NCI tumour cell line growth inhibition, 48 h
The source made the active and inactive calls. Rule as the data show it: active = GI50 up to about 1.1 µM and inactive = higher.
outcome measure: GI50

Known GI50 results, listed for orientation:
compound: Cc1ccc(S(=O)(=O)Oc2cc(N)c3c(n2)CCC3)cc1
system under test: SF-295
endpoint value: 53.8 µM (inactive)

compound: COc1ccc(Oc2nc3c(N)cc(C(F)(F)F)cc3nc2-c2ccccc2)cc1
system under test: SF-295
endpoint value: 18.5 µM (inactive)

compound: c1ccc(CN2CCC3(CC2)SSC2(CCN(Cc4ccccc4)CC2)SS3)cc1
system under test: SF-295
endpoint value: > 100 µM (inactive)

compound: C=C(Cl)C(C)(Cl)CCC(Br)C(C)(C)Cl (stereo not given)
system under test: SF-295
endpoint value: 29.1 µM (inactive)

compound: CCSc1nc(-c2ccc(OC)cc2)c(C#N)c(=O)n1C1OCC(OC(C)=O)C(OC(C)=O)C1OC(C)=O (stereo not given)
system under test: SF-295
endpoint value: > 100 µM (inactive)

compound: Cc1cc(CN(Cc2ccccc2)Cc2nc3ccccc3[nH]2)c(O)c(CN(Cc2nc3ccccc3[nH]2)Cc2nc3ccccc3[nH]2)c1
system under test: SF-295
endpoint value: 6.15 µM (inactive)

May I ask what GI50 has been recorded for CC(C)(C)C(=O)OCC(COC(=O)C(C)(C)C)[N+](=O)[O-] ? > 100 µM (inactive)

May I ask what GI50 has been recorded for CC(=O)Nc1ccc2c(c1)/C(=N/c1ccc(C(=O)O)cc1)c1ccccc1-2 ? 96.4 µM (inactive)

May I ask what GI50 has been recorded for C=C(C)[C@@H]1CCC2=C[C@H](OC2=O)[C@@]2(C)C[C@@H]2C2=CC(C)=C(O2)[C@H]1O ? 33.3 µM (inactive)

May I ask what GI50 has been recorded for NC(c1ccccc1)(C(F)(F)F)P1(=O)OC(=O)c2ccccc2O1 (stereo not given) ? > 100 µM (inactive)

====

# System: SNB-78
# test method notes: NCI tumour cell line growth inhibition, 48 h
The source made the active and inactive calls. Cut-off read from the data, not from the text of the source: active = GI50 up to about 1.1 µM and inactive = higher.
outcome measure: GI50

compound: CCOc1ccc2[nH]c3c(C)c4ccncc4c(C)c3c2c1
system under test: SNB-78
GI50: 1.34 µM (inactive)
--
compound: O=C(Cc1nc2ccccc2o1)C(=O)Nc1ccc(Cl)cc1Cl
system under test: SNB-78
GI50: > 100 µM (inactive)
--
compound: C[C@]12CC[C@@H]3c4ccccc4CC[C@H]3[C@@H]1CC[C@@H]2O
system under test: SNB-78
GI50: > 100 µM (inactive)
--
compound: C[Si](C)(C)/C=C\CCO
system under test: SNB-78
GI50: > 100 µM (inactive)
--
compound: Cc1[nH]c(=O)nc(N/N=C/c2ccc(O)cc2)c1C(=O)Nc1ccc(O)cc1
system under test: SNB-78
GI50: 72.8 µM (inactive)
--
compound: COc1cc2c(cc1OC)C(C#N)(Cc1ccccc1)N(C(=O)c1ccccc1)C=C2 (stereo not given)
system under test: SNB-78
GI50: > 100 µM (inactive)

Request body: readout GI50, system SNB-78, query Cc1nccc2c1cnc1ccnn12 . Return the value. > 100 µM (inactive)

Request body: readout GI50, system SNB-78, query CC(CC(=O)N1C(=O)C(C)(C)[C@@H](O)[C@H]1CC(C)C(Cl)(Cl)Cl)C(Cl)(Cl)Cl (stereo not given in full) . Return the value. > 100 µM (inactive)

Request body: readout GI50, system SNB-78, query CC(C)(C)c1ccc2c(c1)S(=O)(=O)Nc1ccccc1NS(=O)(=O)c1cc(C(C)(C)C)ccc1OCCOCCOCCO2 . Return the value. 59.8 µM (inactive)

Request body: readout GI50, system SNB-78, query O=C1O/C(=C(/c2ccc(Cl)cc2)c2nc3ccccc3[nH]2)C(O)=C1c1ccc(Cl)cc1 . Return the value. 4 µM (inactive)

====

# System: COLO 205
# test method notes: NCI tumour cell line growth inhibition, 48 h
Activity calls are given as the source filed them. No stated cut-off is given here; in the data, active = GI50 up to about 1.1 µM and inactive = higher.
Write down the outcome that applies. Available outcomes: active, inactive

# count of solved cases: 5
compound: C[C@@]12c3c4ccc(C=O)c3Oc3ccc(C=O)c(c31)Oc1c(C=O)ccc(c12)O4
label value: inactive
//
compound: O=S(=O)(O)C(c1ccccc1)C(O)c1ccccc1 (stereo not drawn)
label value: inactive
//
compound: COS(=O)c1cc(Cl)cc(Cl)c1OC(=O)CSSCC(=O)Oc1c(Cl)cc(Cl)cc1S(=O)OC (stereo not drawn)
label value: inactive
//
compound: O=C(CCCN1CCc2[nH]c3cc(F)ccc3c2C1)c1ccc(F)cc1
label value: inactive
//
compound: COc1ccc(/C=C2\NC(=S)N(CN3CCOCC3)C2=O)cc1
label value: inactive

Returns: the outcome recorded for Brc1ccc2[nH]cc(-c3csc(-c4ccccn4)n3)c2c1 in this assay. inactive

Returns: the outcome recorded for c1ccc(CNCCN2CCNCC2)nc1 in this assay. inactive

Returns: the outcome recorded for CC1(C)CC(=O)C2=C(C1)NC1=C(C(=O)CC(C)(C)C1)C2c1ccc([N+](=O)[O-])cc1 in this assay. inactive

Returns: the outcome recorded for Cc1cc(O)no1 in this assay. inactive

Returns: the outcome recorded for COCCOC(C)C(=O)C(O)S(=O)(=O)O (stereo not drawn) in this assay. inactive
